Kindly state melting point for each of the entries shown.

O=C(O)Cc1c(C(=O)c2ccc(-c3ccco3)cc2)[nH]c2cc(Cl)ccc12: 230 to 232 °C
COc1cc(-c2ncn(C3CC3)c2-c2ccc(C(F)(F)F)cc2)cc(OC)c1OC: 125 to 130 °C
O=C1CCCC(c2ccc(Cl)cc2)N1c1ccc(O)cc1 (centres undefined): 209 to 210 °C
COc1cc(NC(=O)c2ccccc2Cl)ccc1C(=O)N1CCCC(OCCNC(N)=O)c2cc(Cl)ccc21 (centres undefined): 206 to 207 °C
O=C1OCC(CCO)(c2ccc(Cl)c(Cl)c2)CN1Cc1ccccc1 (centres undefined): 143 °C

For each of the items listed, what is its melting point?
1. c1cc(NC2=NCCN2)ccc1Cc1cc(OC2CCCC2)cs1
2. Cc1c(C(N)=O)oc2c(C(=O)NCCCN3CCN(c4cc(Cl)ccc4OS(=O)(=O)C(F)(F)F)CC3)cccc2c1=O
3. C=C(C)C1CCC(C)(C(=O)O)C1=C (centres undefined)
4. CCc1ccc(-c2nnc(N3CCC(O)CC3)nc2-c2ccc(CC)cc2)cc1

(A)
["142 to 143 °C", "150 to 156 °C", "66.5 to 68 °C", "164 to 166 °C"]

----------
Kindly state melting point for each of the entries shown.

O=[N+]([O-])c1ccccc1COc1ccc2ncc3c(c2c1)C(O)CCC3 (stereo not given): 181 to 183 °C
CSc1nc(Cl)c(-c2c(F)cc(F)cc2F)c(NC(C)C)n1: 112 to 116 °C
COC(=O)c1cc(S(=O)(=O)c2ccc(C)cc2)cc(OC)c1OC: 114 °C
CN1CCN(c2ccc(Nc3ncc4ccc(Sc5ccccc5)n4n3)cc2)CC1: 155 to 157 °C

Okay, now this compound:
get_value(item= `COc1ccc(CNc2nc3ccccc3c3[nH]c(C4CCCC4)nc23)cc1` , readout=melting point) returns 245 to 247 °C

----------
Kindly state melting point for each of the entries shown.

Take a look at these entries with their results.
Cn1cc(C(=O)NCc2ccc(Cl)cc2)c(=O)c2cc(/C=C/CO)ccc21: 103 to 106 °C
CC(=O)c1c(C)[nH]c(CC(=O)O)c1C: 195 to 205 °C
Cc1c(C)c2c(c(C)c1NC=O)CC(C)(CSc1nc3ccccc3s1)O2 (configuration not stated): 190 to 192 °C
Nc1ccc(Sc2ccnc(N)c2)cc1: 141 to 143 °C
O=[N+]([O-])c1cc(Cl)c(OCC(F)(F)C(F)(F)F)c(Cl)c1F: 62 to 63 °C
COC(=O)c1ccncc1OC: 132 to 135 °C
O=c1[nH]ncn1N=Cc1cccnc1: 264 to 265 °C
COc1cc2c(c(OC)c1OC)-c1ccc(OC(=O)N3CCC(N4CCCCC4)CC3)cc1C(NC(C)=O)CC2 (configuration not stated): 168 to 175 °C
O=C(C1(F)CC1Cc1ccc(Cl)cc1)C1(F)CC1Cc1ccc(Cl)cc1 (configuration not stated): 53 to 54 °C
CCOC(Cc1ccc(NCCc2ccc(OS(C)(=O)=O)cc2)cc1)C(=O)O (configuration not stated): 130 to 134 °C

For each of the items listed, what is its melting point?
1. COC(=O)CCCCCOC1OC(CO)C(O)C(O)C1NC(C)=O (configuration not stated)
2. Nc1ccc(OCc2ccccn2)nn1
3. COc1cc(OC)c(NC(=O)[C@H](Cc2ccc(OCc3ccccc3)cc2)NC(=O)OC(C)(C)C)c(OC)c1
4. Cc1cccc(-c2ccc(OS(=O)(=O)C(F)(F)F)cc2C=O)c1
5. CC(=O)OCC1CCC2C3CCC4=CC(=O)CCC4(C)C3CCC12C (configuration not stated)
6. CCOP(=O)(Cc1cc(C(C)(C)C)c(O)c(C(C)(C)C)c1)OCC
7. S=C(Nc1cc(Cl)cc(Cl)c1)Nc1cc(OCc2cccc3ccccc23)ccc1Br
8. CCn1ncnc1COc1nn2c(-c3ccccc3F)nncc2c1-c1ccccc1F

(A)
["154 to 155 °C", "114 to 115 °C", "89 to 95 °C", "60 to 62 °C", "141 to 142 °C", "114 °C", "149 to 151 °C", "164 °C"]

----------
reported metric: melting point

COC(=O)C1=C(Cl)C(=O)CC(c2ccc(Cl)c(OC)c2F)N1 (stereo not given): 127 to 129 °C
Cc1cnc(N2CCN(CC[C@H]3CC[C@H](NC(=O)CC4CCOCC4)CC3)CC2)c2c1OCC2: 199 °C
CC(C)C(=O)Nc1ccc(C(=O)Nc2ccccc2N)cc1: 248 °C

For each of the items listed, what is its melting point?
1. Cc1nc(N2CCCC(Cc3ccc(F)cc3)C2=O)sc1C(=O)NCc1cccc(F)c1 (stereo not given)
2. CCOC(=O)c1ccsc1NC(=O)NC
3. CN(C)C(=O)Oc1ccc2nc(S(N)(=O)=O)sc2c1
4. OCc1cc2cc(Cl)cc(Br)c2o1
5. CCn1c(C(F)(F)F)nn(C2=CCC(F)(C(N)=S)C(N)=C2)c1=O (stereo not given)
6. Cc1cc(F)ccc1N(C)C(=O)c1cccc(S(=O)(=O)N(C)c2ccc(Br)cc2)c1
7. O=C(c1ccccc1)c1ccc2cc[nH]c2n1

(A)
173 to 175 °C
83 to 87 °C
208 to 209 °C
123 to 126 °C
161 °C
104 to 105 °C
174 °C

For each of the items listed, what is its melting point?
1. CC(=O)NCc1cc(Br)cc2[nH]c(=O)c(=O)[nH]c12
2. O=C1c2c(F)c(F)c(F)c(F)c2C(=O)N1c1ccccc1
3. CCCCCCCCCCCC(=O)NCCOCCn1c(CCOC)nc2c(N)nc3ccccc3c21
4. CCOC(=O)CCc1cn(Cc2ccc(OCc3ccccc3)cc2)nc1OCc1ccc(OCc2ccccc2)cc1
5. CC(=O)NC(=Cc1ccccc1)C1=NC(=Cc2ccc(F)cc2)C(=O)O1
6. O=C(NNc1nc(-c2ccccc2)c2cc(Cl)ccc2n1)C(F)(F)F
7. CCOC(=O)CNc1ccc(Cl)c(Cl)c1

(A)
1. > 300 °C
2. 210 to 211 °C
3. 80 to 83 °C
4. 98 to 99 °C
5. 172 °C
6. 207 to 208 °C
7. 103 to 104 °C

----------
Kindly state melting point for each of the entries shown.

CCOC(=O)C(=NNc1ccc([N+](=O)[O-])cc1)C(C)=O: 128 °C
N#CCCNC(=O)C1=CC(CF)(CF)Oc2cc(Cl)c(Cl)cc21: 135 to 136 °C
O=C(CCS)NCCS: 40 °C
O=C1Nc2ccncc2C(c2ccccc2)N1C1CCN(Cc2ccccc2)CC1 (stereo unspecified): 209 to 210 °C
O=c1c2ccccc2[nH]c2c(OCCCCBr)cccc12: 180 to 181 °C

For each of the items listed, what is its melting point?
1. O=C1CN2CCOC2(c2ccccc2Cl)c2cc([N+](=O)[O-])ccc2N1 (stereo unspecified)
2. CCCCOCCN(CCCCCSc1nc(-c2ccccc2)c(-c2ccccc2)[nH]1)C(=O)Nc1ccc(F)cc1F
3. N#Cc1cc(-c2c(-c3ccccc3)nn3ccccc23)cn(CCC(=O)O)c1=O
4. Cc1cc(C)c(C)c(C(=O)CCl)c1C
5. CCOC(=O)c1noc(-c2ccc([N+](=O)[O-])cc2)n1
6. CCN1C(=O)C(=C2C=C(N3CCCC3)CC(C)(C)C2)SC1=S
7. O=C(c1ccc(-n2nc(-c3ccccc3O)nc2-c2ccccc2O)cc1)N1CCOCC1

(A)
1: 201 to 203 °C; 2: 69 to 71 °C; 3: 196 to 200 °C; 4: 65.5 °C; 5: 75 to 77 °C; 6: 234 to 235 °C; 7: 157 to 160 °C

For each of the items listed, what is its melting point?
1. CCN(C)C(C)CN1CCc2c(c(=O)oc3cc(OC)ccc23)C1 (stereo unspecified)
2. CC12CCC3C(CCC4CC(O)CCC43C)C1CCC2C#N (stereo unspecified)
3. COc1c(F)cc2[nH]c(C)c(CC(=O)OCC[Si](C)(C)C)c2c1F
4. CCn1nc2c(cc1=O)CCSc1sc(Br)cc1-2
5. COCc1c(O)ccc2c1CCCC2=O

(A)
1. 102 to 104 °C
2. 156 to 158 °C
3. 86.9 to 88.7 °C
4. 149 to 151 °C
5. 142 to 143 °C

For each of the items listed, what is its melting point?
1. COc1ccc(CCOc2cccc(-c3cccc(C(=O)O)c3)c2)cc1OC
2. CCC1(O)CCC2C3CCC4CC(=O)CC(C)C4(C)C3CCC21C (stereo unspecified)
3. Nc1ncc(-c2cccc(Nc3ccc(-c4ccoc4)cc3N)c2)cn1
4. O=c1[nH]c2cc(OCCN3CCC(Cc4ccccc4)CC3)ccc2o1

(A)
["100 to 102 °C", "152 °C", "208 to 209 °C", "176 to 177 °C"]
